Biological target: Muscarinic acetylcholine receptor M4 (Homo sapiens, UniProt P08173); further: in other assays of this panel Not Active means under 50% inhibition at 10 µM
Sequence (P08173 whole entry): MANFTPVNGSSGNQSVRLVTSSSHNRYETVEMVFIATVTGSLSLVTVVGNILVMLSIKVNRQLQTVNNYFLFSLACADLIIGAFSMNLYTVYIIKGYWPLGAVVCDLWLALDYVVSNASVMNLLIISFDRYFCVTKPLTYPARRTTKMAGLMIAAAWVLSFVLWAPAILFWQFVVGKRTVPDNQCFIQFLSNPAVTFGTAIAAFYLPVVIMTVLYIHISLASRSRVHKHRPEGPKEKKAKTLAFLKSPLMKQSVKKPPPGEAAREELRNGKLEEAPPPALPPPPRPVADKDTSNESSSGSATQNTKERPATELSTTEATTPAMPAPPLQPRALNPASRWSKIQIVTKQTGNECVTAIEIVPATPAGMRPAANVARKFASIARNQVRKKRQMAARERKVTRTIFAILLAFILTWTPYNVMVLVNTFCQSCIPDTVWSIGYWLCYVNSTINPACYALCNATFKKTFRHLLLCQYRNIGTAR
Type: cell membranes, CHO-K1, Membrane
Conditions: cho-k1
Readout kind: IC50

Below are worked cases with known answers.
Compound: NC(=O)CN1CCCC1=O
IC50: Not Active
--
Compound: CC12CCC(CC1)C(C)(C)O2 [EUCALYPTOL]
IC50: Not Active
--
Compound: CC[C@H](C)C(=O)O[C@H]1CCC=C2C=C[C@H](C)[C@H](CC[C@@H]3C[C@@H](O)CC(=O)O3)[C@H]21 [MEVASTATIN]
IC50: Not Active
--
Compound: C[C@]12CC[C@@H](O)C[C@@H]1CC[C@@H]1[C@@H]2CC[C@]2(C)C(=O)CC[C@@H]12 [ANDROSTERONE]
IC50: Not Active
--
Compound: ClC1=C(Cl)[C@]2(Cl)[C@@H]3[C@@H]4C[C@@H]([C@H]5O[C@@H]45)[C@@H]3[C@@]1(Cl)C2(Cl)Cl [DIELDRIN]
IC50: Not Active
--
Compound: Cc1ccnc(NS(=O)(=O)c2ccc(N)cc2)n1 [SULFAMERAZINE]
IC50: Not Active
--
Compound: Nc1ccc(C(=O)O)c(O)c1 [AMINOSALICYLIC ACID]
IC50: Not Active
--
Compound: CC1(C)[C@H](C(=O)O)N2C(=O)C[C@H]2S1(=O)=O [SULBACTAM]
IC50: Not Active

Request: Return IC50 measured with Muscarinic acetylcholine receptor M4 (Homo sapiens, UniProt P08173) given this compound: CO[C@@]12[C@H](COC(N)=O)C3=C(C(=O)C(C)=C(N)C3=O)N1C[C@@H]1N[C@@H]12 [MITOMYCIN]
Result: Not Active

Request: Return IC50 measured with Muscarinic acetylcholine receptor M4 (Homo sapiens, UniProt P08173) given this compound: c1ccc2sc(SSc3nc4ccccc4s3)nc2c1 [BENZOTHIAZYL DISULFIDE]
Result: Not Active

Request: Return IC50 measured with Muscarinic acetylcholine receptor M4 (Homo sapiens, UniProt P08173) given this compound: OC[C@H]1O[C@@H]2O[C@H]3[C@H](O)[C@@H](O)[C@@H](O[C@H]4[C@H](O)[C@@H](O)[C@@H](O[C@H]5[C@H](O)[C@@H](O)[C@@H](O[C@H]6[C@H](O)[C@@H](O)[C@@H](O[C@H]7[C@H](O)[C@@H](O)[C@@H](O[C@H]1[C@H](O)[C@H]2O)O[C@@H]7CO)O[C@@H]6CO)O[C@@H]5CO)O[C@@H]4CO)O[C@@H]3CO [ALFADEX]
Result: Not Active

Request: Return IC50 measured with Muscarinic acetylcholine receptor M4 (Homo sapiens, UniProt P08173) given this compound: C=C(Cl)Cl [1,1-DICHLOROETHENE]
Result: Not Active

Request: Return IC50 measured with Muscarinic acetylcholine receptor M4 (Homo sapiens, UniProt P08173) given this compound: CCOC(=O)C1=C(C)NC(C)=C(C(=O)OCC)C1c1ccccc1/C=C/C(=O)OC(C)(C)C [LACIDIPINE]
Result: Not Active
